system: MLK1; construct: gene MAP3K9; details: concentration: 1 μM, replicates: in singlicate; n = 1;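 further: KINOMEscan kinase panel screen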
Quantity kind: %Inh (%)
Write the answer as a number in %, unit excluded.

O=C(O)C(F)(F)F.O=c1[nH]ccc2nc(N[C@@H]3CCNC3)nc(Nc3cc(Cl)cc(Cl)c3)c12 [GSK2188764] | 95.7
Cn1cc(-c2ccc3c(c2)CCN3C(=O)Cc2cc(F)cc(F)c2F)c2c(N)ncnc21 [GSK2634140] | 38

# input For Cl.Cl.NC(CNC(=O)c1cc(Br)c(-c2ccnc3[nH]ccc23)s1)c1ccccc1 (stereo not drawn) [GSK1322949] , what is its reported %Inh?
# output 0

# input For Cc1ccc(NC(=O)c2ccc(Cl)c(Cl)c2)cc1-c1ccc(C(=O)Nc2ccncc2)cc1 [GSK1398460] , what is its reported %Inh?
# output 7

====

tested on: TSSK3; conditions: concentration: 1 μM, replicates: in singlicate; n = 1
Quantity kind: %Inh

O=C(Nc1n[nH]c2nc(-c3ccccc3)ccc12)C1CC1 | 16%
CCn1c(-c2nonc2N)nc2c(-c3ccccc3)ncc(OCCCN)c21.O=C(O)C(F)(F)F.O=C(O)C(F)(F)F | 24%
CCNc1nccc(-c2c(-c3ccc(F)cc3)ncn2C2CCN(C)CC2)n1 | 0%
CC(C)c1nc(-c2cccc(NS(=O)(=O)c3c(F)cccc3F)c2)c(-c2ccnc(Nc3ccc(N4CCOCC4)nc3)n2)s1.Cl | 19%
COc1cccc(NC(=O)NCCNc2ccnc(Nc3ccc(F)cc3)n2)c1 | 14%

# input For O=C(O)C(F)(F)F.O=c1[nH]ccc2nc(N[C@@H]3CCNC3)nc(Nc3cc(Cl)cc(Cl)c3)c12 , what is its reported %Inh?
# output 85%

# input For Cn1cc(-c2cnc(N)c3c(-c4ccc5c(c4)CCN5C(=O)Cc4ccccc4)csc23)cn1 , what is its reported %Inh?
# output 0%

# input For Nc1ncnc2scc(-c3ccc(NC(=O)Cc4cc(F)ccc4F)cc3)c12.O=C(O)C(F)(F)F , what is its reported %Inh?
# output 0%

====

test system: CLK3; conditions: concentration: 1 μM, replicates: in singlicate; n = 1
Recorded measurements of %Inh, one per entry
Number plus unit, in that order.

Nc1ncnc2scc(-c3ccc(NC(=O)Cc4cc(F)ccc4F)cc3)c12.O=C(O)C(F)(F)F [SB-731254-M] | 14%
CC(C)c1nc(-c2ccc(F)c(NS(=O)(=O)c3c(F)cccc3F)c2)c(-c2ccnc(Nc3ccc(N4CCOCC4)nc3)n2)s1 [GSK1804250] | 6%

Could you now consider this next compound?
# input For Cc1ccc(C)c(NC(=O)Nc2ccc(C)c(-c3ccc(C(=O)Nc4ccncc4)cc3)c2)c1 [GSK1398473] , what is its reported %Inh?
# output 3%

====

test system: ICK; conditions: concentration: 1 μM, replicates: in singlicate; n = 1
Quantity kind: %Inh (%)
Write the answer as a number in %, unit excluded.

Before answering, review these 2 worked examples.
CCOc1nccc(-c2c(-c3ccc(F)cc3)ncn2C2CCNCC2)n1 | 65
CN(c1ccc(NC(=O)N2CCN(CCCN3CCOCC3)CC2)cc1)c1ccnc(Nc2ccc(CS(C)(=O)=O)cc2)n1.Cl | 95.9

# input // fetch ICK %Inh for CN1CCN(Cc2ccc(NC(=O)Nc3ccc(N(C)c4ccnc(Nc5ccc(CS(C)(=O)=O)cc5)n4)cc3)cc2)CC1.Cl
# output 71

# input // fetch ICK %Inh for COc1ccc(NC(=O)c2ccoc2)cc1-c1ccc(C(=O)NCC2CC2)cc1
# output 13

# input // fetch ICK %Inh for Cl.N#CCc1ccc(Nc2nccc(Nc3ccc(Oc4ccccc4)cc3)n2)cc1
# output 0

# input // fetch ICK %Inh for O=C(O)C(F)(F)F.O=c1[nH]ccc2nc(N[C@@H]3CCNC3)nc(Nc3ccc4c(c3)S(=O)(=O)CC4)c12
# output 68

# input // fetch ICK %Inh for COc1cc(Nc2ccnc3cc(-c4ccncc4)ccc23)cc(OC)c1OC.Cl
# output 0

# input // fetch ICK %Inh for COC(=O)Nc1nc2ccc(Oc3ccc(CC(=O)Nc4cc(C(F)(F)F)ccc4F)cc3)cc2[nH]1
# output 0

====

Recorded measurements of %Inh, one per entry
system: YANK1; construct: gene STK32A; details: concentration: 1 μM, replicates: in singlicate; n = 1
Write the answer as a number in %, unit excluded.

Before answering, review these 4 worked examples.
COc1cc(Nc2ccnc3cc(-c4ccncc4)ccc23)cc(OC)c1OC.Cl [GW494610] | 2
Cl.O=C(Nc1ccc(Oc2ccc3[nH]c(NC(=O)c4ccco4)nc3c2)cc1)Nc1cc(C(F)(F)F)ccc1F [GW683134] | 2
CC(C)c1nc(-c2ccc(F)c(NS(=O)(=O)c3c(F)cccc3F)c2)c(-c2ccnc(Nc3ccc(N4CCOCC4)nc3)n2)s1 [GSK1804250] | 42
CNc1nccc(-c2ccc3c(N)n[nH]c3c2)n1 [GSK2206003] | 62

Could you now consider this next molecule?
# input For Cc1nn2c(=O)cc(N3CCO[C@H](C)C3)nc2n1Cc1cccc(Cl)c1Cl [GSK2373693] , what is its reported %Inh?
# output 2

====

test system: FGR; conditions: concentration: 1 μM, replicates: in singlicate; n = 1
Quantity kind: %Inh (%)
Write the answer as a number in %, unit excluded.

Before answering, review these 8 worked examples.
COc1cc(Nc2nccc(N3CCC(NS(=O)(=O)c4ccc(NC(C)=O)cc4)CC3)n2)cc(OC)c1OC | 50
CCn1c(-c2nonc2N)nc2c(-c3ccccc3)ncc(OCCCN)c21.O=C(O)C(F)(F)F.O=C(O)C(F)(F)F | 38
CN(C)c1ncnc2nc[nH]c12 | 0
CCNC(=O)/C=C/c1n[nH]c2cc(Sc3ccccc3C(=O)NC)ccc12 | 71
O=C1NC(=O)C(c2ccccc2Cl)=C1Nc1cccc(Cl)c1 | 22
Fc1cc(Cl)ccc1Nc1ccnc2cc(-c3ccc(CN4CCOCC4)o3)ccc12 | 91.2
Cc1ccc(-c2ccc3occ(-c4ccc(S(C)=O)cc4)c3c2)nn1 (stereo not drawn) | 15
O=C(Nc1n[nH]c2nc(-c3cccc(O)c3)ccc12)C1CC1 | 9

Could you now consider this next compound?
# input // fetch FGR %Inh for Cn1cc(-c2ccc3c(c2)CCN3C(=O)Cc2cc(F)cc(F)c2F)c2c(N)ncnc21
# output 48

====

system: CAMKK1; details: concentration: 1 μM, replicates: in singlicate; n = 1
Recorded measurements of %Inh, one per entry
Write the answer as a number in %, unit excluded.

# input For Fc1cc(Cl)ccc1Nc1ccnc2cc(-c3ccc(CN4CCSCC4)o3)ccc12 , what is its reported %Inh?
# output 25

# input For CSc1ccc(NC2=C(c3ccc(Cl)cc3)C(=O)NC2=O)cc1 , what is its reported %Inh?
# output 0

====

Recorded measurements of %Inh, one per entry
test system: PIP5K1C; conditions: concentration: 1 μM, replicates: in singlicate; n = 1
Write the answer as a number in %, unit excluded.

Before answering, review these 3 worked examples.
Cc1ccc(NC(=O)c2ccc(Cl)c(Cl)c2)cc1-c1ccc(C(=O)Nc2ccncc2)cc1 [GSK1398460] | 0
COc1cccc(NC(=O)NCCNc2ccnc(Nc3ccc(F)cc3)n2)c1 [GSK1379879] | 63
CC(C)c1nc(-c2cccc(NS(=O)(=O)c3c(F)cccc3F)c2)c(-c2ccnc(Nc3ccc(N4CCOCC4)nc3)n2)s1.Cl [GSK1723980] | 20

Could you now consider this next compound?
# input For Cc1ccc(O)cc1Nc1ccnc2cc(-c3ccc(CN4CCCCC4)o3)ccc12 [GW557777] , what is its reported %Inh?
# output 0

====

test system: EPHB2; conditions: concentration: 1 μM, replicates: in singlicate; n = 1
Quantity kind: %Inh
Number plus unit, in that order.

Before answering, review these 2 worked examples.
Cn1cc(-c2ccc3c(c2)CCN3C(=O)Cc2cc(F)cc(F)c2F)c2c(N)ncnc21 | 0%
CN(C)CCNS(=O)(=O)c1ccc(-c2ccnc3[nH]ccc23)cc1 | 0%

# input For COc1ccc(C2=C(Nc3cccc(O)c3)C(=O)NC2=O)cc1 , what is its reported %Inh?
# output 87%

====

system: TRKC; construct: gene NTRK3; details: concentration: 1 μM, replicates: in singlicate; n = 1
Quantity kind: %Inh (%)
Write the answer as a number in %, unit excluded.

COc1cccc(C2=C(Nc3cccc(O)c3)C(=O)NC2=O)c1 | 46

# input For COc1ccc(NC(=O)c2ccoc2)cc1-c1ccc(C(=O)NCC2CC2)cc1 , what is its reported %Inh?
# output 21

# input For Cc1cccc(Nc2nc(NCCN)ncc2C(N)=O)c1 , what is its reported %Inh?
# output 43

# input For CN1CCN(Cc2ccc(NC(=O)Nc3ccc(N(C)c4ccnc(Nc5ccc(CS(C)(=O)=O)cc5)n4)cc3)cc2)CC1.Cl , what is its reported %Inh?
# output 92.5

# input For CN(c1ccc2c(c1)nc(NCc1ccccc1)n2C)c1ccnc(Nc2ccc(CS(C)(=O)=O)cc2)n1.Cl , what is its reported %Inh?
# output 55

# input For Fc1cc(Cl)ccc1Nc1ccnc2cc(-c3ccc(CN4CCSCC4)o3)ccc12 , what is its reported %Inh?
# output 0

# input For NCCC(NC(=O)c1cc(Br)c(-c2ccnc3[nH]ccc23)s1)c1ccccc1.O=C(O)C(F)(F)F.O=C(O)C(F)(F)F (centres unmarked) , what is its reported %Inh?
# output 47

# input For O=C1NC(=O)C(c2ccccc2Cl)=C1Nc1cccc(Cl)c1 , what is its reported %Inh?
# output 9

# input For Cc1cc(-c2c(-c3ccc(F)cc3)ncn2CCCN2CCOCC2)nc(N)n1 , what is its reported %Inh?
# output 0

# input For Cl.Cl.NC(CNC(=O)c1cc(Br)c(-c2ccnc3[nH]ccc23)s1)c1ccccc1 (centres unmarked) , what is its reported %Inh?
# output 85

# input For Cc1cc(-c2ccnc(Nc3cccc(C#N)c3)n2)cc(C)c1O , what is its reported %Inh?
# output 39

# input For CCn1cnc2c(NCc3ccccc3)ncnc21 , what is its reported %Inh?
# output 11

# input For Nc1ncc(-c2cn[nH]c2)c2scc(-c3ccc4c(c3)CCN4C(=O)Cc3ccccc3)c12 , what is its reported %Inh?
# output 70

# input For Cc1ccc(NC(=O)c2cccc(N3CCCCC3)c2)cc1-c1ccc(C(=O)NCC2CC2)cc1 , what is its reported %Inh?
# output 0

# input For N#CC1(c2cccc(C(=O)Nc3cccc(Oc4ccc5nc(NC(=O)C6CC6)sc5n4)c3)c2)CC1 , what is its reported %Inh?
# output 0

# input For CC(C)(C)c1ccc(C(=O)Nc2cn3cc(-n4ccnc4)ccc3n2)cc1 , what is its reported %Inh?
# output 0
